Test system: HOX-high AML patient cells
experimentalProtocol: Primary chemical screen of 60 compounds, cell dose-response viability assay (CellTiterGlo, 6 days)
Format: cell-based, human
studyConditions: read-out: MEAN EC50 HOX-high
Protocol: frozen AML mono-nucleated cells were thawed at 37° C. in Iscove's modified Dulbecco's medium (IMDM) containing 20% FBS and DNase I (100 μg/mL). All powders were dissolved in DMSO and diluted in culture medium immediately before use. […] Patient cells were seeded in 384-well plates at a density of 5,000 cells in 50 μL per well. […] Viable cell counts per well were evaluated after 6 days of culture using the CellTiterGlo® assay (Promega®) according to the manufacturer's instruction. […]
pEC50: −log10 of the molar value.
measurementLabel: pEC50

Requested read-out: pEC50. Entry: C[S+]([O-])c1ccc(-c2nc(-c3ccc(F)cc3)c(-c3ccncc3)[nH]2)cc1 (stereo not shown)
< 5.00

----------
Tested on: HOX-high AML patient cells
experimentalProtocol: Primary chemical screen of 60 compounds, cell dose-response viability assay (CellTiterGlo, 6 days)
Assay type: cell-based, human
studyConditions: primary screen; mean over HOX-high patient specimens; 6 days culture; top concentration 10 μM or 20 μM; read-out: MEAN EC50 HOX-high
Known EC50 of a selection of molecules
Express your answer in µM, writing the number without its unit.

Take a look at these entries with their results.
CC(C)c1cc(/C=C(\C#N)C(=O)NCCCc2ccccc2)cc(C(C)C)c1O [SU1498] | 9.86
Cc1ccc(Nc2c(C(N)=O)cnc3cc(-c4ccc(S(C)(=O)=O)cc4)ccc23)cc1C [cFMS Receptor Inhibitor III] | 8.86
Nc1ncnc2c1c(-c1cccc(OCc3ccccc3)c1)cn2C1CC(CN2CCC2)C1 (stereo not drawn) [NVPAEW541] | 1.73
Cc1ccc(C(=O)Nc2cccc(C(F)(F)F)c2)cc1Nc1nc(-c2cccnc2)nc2c1cnn2C [NVPBHG712] | 4.44

Please turn your attention to the following entry.
Requested read-out: EC50. Entry: COc1cc2nccc(Oc3ccc(NC(=O)Nc4ccc(F)cc4F)c(F)c3)c2cc1OC [Ki8751]
0.844

----------
Test system: HOX-med/low AML patient cells
experimentalProtocol: Primary chemical screen of 60 compounds, cell dose-response viability assay (CellTiterGlo, 6 days)
Format: cell-based, human
studyConditions: Homo sapiens, 144 h; primary screen; mean over HOX-med/low patient specimens; 6 days culture; top concentration 10 μM or 20 μM; read-out: MEAN EC50 HOX-med/low
Method: frozen AML mono-nucleated cells were thawed at 37° C. in Iscove's modified Dulbecco's medium (IMDM) containing 20% FBS and DNase I (100 μg/mL). All powders were dissolved in DMSO and diluted in culture medium immediately before use. […] Patient cells were seeded in 384-well plates at a density of 5,000 cells in 50 μL per well. […] Viable cell counts per well were evaluated after 6 days of culture using the CellTiterGlo® assay (Promega®) according to the manufacturer's instruction. […]
pEC50: −log10 of the molar value.
Short version: pEC50 at least 6 is true, less is false.

Here are 5 compounds together with their reported answers.
CS(=O)(=O)CCNCc1ccc(-c2ccc3ncnc(Nc4ccc(OCc5cccc(F)c5)c(Cl)c4)c3c2)o1 [Lapatinib ditosylate., Lapatinib ditosylate] | false
Cn1cncc1[C@@](N)(c1ccc(Cl)cc1)c1ccc2c(c1)c(-c1cccc(Cl)c1)cc(=O)n2C | true
CNC(=O)c1cccc(-c2ccc3c(N4CCOC[C@@H]4C)nc(N4CCOC[C@@H]4C)nc3n2)c1 | true
O=C(NOCC1CC1)c1ccc(F)c(F)c1Nc1ccc(I)cc1Cl | false
CC(=O)Nc1cccc(-n2c(=O)n(C3CC3)c(=O)c3c(Nc4ccc(I)cc4F)n(C)c(=O)c(C)c32)c1 | true

Hi team, for Cc1ccc(NC(=O)c2ccc(CN3CCN(C)CC3)cc2)cc1Nc1nc(-c2cccnc2)cs1 , is the recorded pEC50 at or above 6?
false

Hi team, for O=c1cc(N2CCNCC2)oc2c(-c3ccccc3)cccc12 , is the recorded pEC50 at or above 6?
false

Hi team, for CS(=O)(=O)N1CCN(Cc2cc3nc(-c4cccc5[nH]ncc45)nc(N4CCOCC4)c3s2)CC1 , is the recorded pEC50 at or above 6?
true

----------
Tested on: HOX-med/low AML patient cells
experimentalProtocol: Primary chemical screen of 60 compounds, cell dose-response viability assay (CellTiterGlo, 6 days)
Assay type: cell-based, human
studyConditions: Homo sapiens, 144 h; primary screen; mean over HOX-med/low patient specimens; 6 days culture; top concentration 10 μM or 20 μM; read-out: MEAN EC50 HOX-med/low
Where a name gives a salt, the structure may show the parent alone.
measurementLabel: EC50 (nM)
Express your answer in nM, writing the number without its unit.

Requested read-out: EC50. Entry: CNC(=O)c1cc(Oc2ccc(NC(=O)Nc3ccc(Cl)c(C(F)(F)F)c3)cc2)ccn1 [Sorafenib Tosylate]
936

Requested read-out: EC50. Entry: NC1(c2ccc(-c3nc4ccn5c(=O)[nH]nc5c4cc3-c3ccccc3)cc2)CCC1
1040

Requested read-out: EC50. Entry: COc1cccc2cc(-c3nc([C@H]4CC[C@H](C(=O)O)CC4)n4ncnc(N)c34)[nH]c12
666

Requested read-out: EC50. Entry: C#Cc1cccc(Nc2ncnc3cc(OCCOC)c(OCCOC)cc23)c1
9140

Requested read-out: EC50. Entry: Cc1nc(NC(=O)N2CCC[C@H]2C(N)=O)sc1-c1ccnc(C(C)(C)C(F)(F)F)c1
4750

Requested read-out: EC50. Entry: C=CCNC1=C2C[C@@H](C)C[C@H](OC)[C@H](O)[C@@H](C)/C=C(\C)[C@H](OC(N)=O)[C@@H](OC)/C=C\C=C(/C)C(=O)NC(=CC1=O)C2=O
249

Requested read-out: EC50. Entry: CC(C)(C)c1cc(NC(=O)Nc2ccc(-c3cn4c(n3)sc3cc(OCCN5CCOCC5)ccc34)cc2)no1
520

Requested read-out: EC50. Entry: Nc1cccc2c1CN(C1CCC(=O)NC1=O)C2=O (stereo not shown) [Lenalidomide]
9910

Requested read-out: EC50. Entry: FC(F)(F)c1ccc(/C=C/c2nc(COc3ccc(CCCCn4ccnn4)cc3)co2)cc1
1380

The values you see were collected from patent US20200188361A1.
